Test system: A375 cells
assay_protocol: DAPI staining of apoptotic nuclei, A375
Type: cell-based, human
experimental_setup: A375, treated 36 hours at ½IC50
Overview of recorded DAPI (+) apoptotic cells for various molecules
Express the result in % but write the number alone.

O=c1c(O)c(-c2ccccc2)oc2cc(Br)ccc12; 6.2
COc1cccc(-c2oc3cc(C)ccc3c(=O)c2O)c1; 7.5
Cc1cc2oc(-c3ccc(OCc4ccccc4)cc3)c(O)c(=O)c2cc1Cl; 5.6
CCOc1ccc(-c2oc3cc(Cl)ccc3c(=O)c2O)cc1F; 5.4
Cc1cc([N+](=O)[O-])c2oc(-c3ccc(Br)cc3)c(O)c(=O)c2c1; 8.2

Note down DAPI (+) apoptotic cells recorded for Cc1ccc2c(=O)c(O)c(-c3cccc(Cl)c3)oc2c1
6.5

Check the records and state DAPI (+) apoptotic cells for O=c1c(O)c(-c2cccc(Cl)c2)oc2ccc(F)cc12
6.9

====

Notes on pIC50 obtained with UniProtKB P10721.
Sequence (P10721 26-976): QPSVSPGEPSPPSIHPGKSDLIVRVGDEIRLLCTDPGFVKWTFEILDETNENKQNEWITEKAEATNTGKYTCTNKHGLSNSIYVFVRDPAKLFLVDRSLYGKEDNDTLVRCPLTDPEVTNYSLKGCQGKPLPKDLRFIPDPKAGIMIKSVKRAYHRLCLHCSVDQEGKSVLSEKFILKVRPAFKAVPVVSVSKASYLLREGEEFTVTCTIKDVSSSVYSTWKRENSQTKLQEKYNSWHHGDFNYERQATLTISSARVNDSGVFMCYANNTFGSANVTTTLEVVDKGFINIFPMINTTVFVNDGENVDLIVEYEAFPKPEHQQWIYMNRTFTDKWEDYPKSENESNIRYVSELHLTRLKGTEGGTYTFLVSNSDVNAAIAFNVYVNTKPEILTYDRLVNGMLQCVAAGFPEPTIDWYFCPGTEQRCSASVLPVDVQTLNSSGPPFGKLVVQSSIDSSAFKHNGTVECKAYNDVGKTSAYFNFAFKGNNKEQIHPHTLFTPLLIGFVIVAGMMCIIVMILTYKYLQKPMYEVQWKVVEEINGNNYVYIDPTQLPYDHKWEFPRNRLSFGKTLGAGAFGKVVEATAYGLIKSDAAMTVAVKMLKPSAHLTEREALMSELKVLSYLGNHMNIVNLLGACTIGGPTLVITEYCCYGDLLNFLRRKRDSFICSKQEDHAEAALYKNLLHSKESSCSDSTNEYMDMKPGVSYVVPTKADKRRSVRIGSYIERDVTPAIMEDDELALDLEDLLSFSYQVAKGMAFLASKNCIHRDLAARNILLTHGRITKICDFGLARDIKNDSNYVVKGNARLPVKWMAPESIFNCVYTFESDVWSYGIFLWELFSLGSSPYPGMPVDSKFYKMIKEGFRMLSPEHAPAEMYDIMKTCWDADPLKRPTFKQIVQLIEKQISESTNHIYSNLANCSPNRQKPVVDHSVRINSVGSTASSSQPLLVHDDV
Note on pIC50: it is the negative log10 of concentration, concentration in mol/L.

# annotated cases, reported pIC50 shown
Cc1cc2oc(-c3ccc(OCc4ccccc4)cc3)c(O)c(=O)c2cc1Cl; 6.48
O=c1c(O)c(-c2ccc(O)c(O)c2)oc2cc(O)ccc12 [F0, 3´,4´,7-trihydroxyflavonol, reference compound]; 5.87

# assay system UniProtKB P10721: give pIC50 of COc1cccc(-c2oc3cc(C)ccc3c(=O)c2O)c1
6.92

Report value only: pIC50, UniProtKB P10721, O=c1c(O)c(-c2cccc(Cl)c2)oc2ccc(F)cc12
5.76

====

System: A375 cells
assay_protocol: MTT cytotoxicity / cell viability assay, A375
Assay type: cell-based, human
experimental_setup: Homo sapiens, A-375, 48 h
Mark Satisfied only for IC50 values smaller than 20 µM; exact matches and larger values are Not satisfied.

Cc1cc2oc(-c3ccc(OCc4ccccc4)cc3)c(O)c(=O)c2cc1Cl [F19]; Satisfied
COc1cccc2c1C(=O)c1c(O)c3c(c(O)c1C2=O)C[C@@](O)(C(=O)CO)C[C@@H]3O[C@H]1C[C@H](N)[C@H](O)[C@H](C)O1 [Doxorubicin, reference compound]; Satisfied
COc1cc(-c2oc3ccc(F)cc3c(=O)c2O)cc(OC)c1OC [F22]; Satisfied
COc1cccc(-c2oc3cc(Br)ccc3c(=O)c2O)c1 [F15]; Not satisfied
COc1cccc(-c2oc3cc(C)ccc3c(=O)c2O)c1 [F9]; Satisfied

Given Cc1cc2oc(-c3ccc(C(C)(C)C)cc3)c(O)c(=O)c2cc1Cl [F18] , is recorded IC50 strictly lower than 20 µM?
Not satisfied

Quick check: does COc1cccc(-c2oc3ccccc3c(=O)c2O)c1 [F2] have IC50 under 20 µM?
Not satisfied

hey, is IC50 for COc1ccc(-c2oc3cc(C)ccc3c(=O)c2O)c(Br)c1OC [F10] lower than 20 µM or not?
Not satisfied

Does the reported IC50 of the following compound sit strictly below 20 µM? O=c1c(O)c(-c2ccccc2)oc2cc(Br)ccc12 [F14]
Satisfied

====

assayed_system: CDK2/Cyclin A (Homo sapiens, UniProt P24941)
assay_protocol: In vitro kinase activity assay
experimental_setup: 10-dose, three-fold serial dilution from 100 μM
Each entry below carries its reported log10 of IC50.
For clarity, the numbers are log10 values of IC50 expressed in µM.

Worked cases, log10 of IC50 given:
Cc1cc([N+](=O)[O-])c2oc(-c3ccc(Br)cc3)c(O)c(=O)c2c1; 0.68
Cc1cc2oc(-c3ccc(OCc4ccccc4)cc3)c(O)c(=O)c2cc1Cl; 1.10
CCOc1ccc(-c2oc3cc(Cl)ccc3c(=O)c2O)cc1F; 1.48

Please list log10 of IC50 recorded for the molecule O=c1c(O)c(-c2ccccc2)oc2cc(Br)ccc12
0.82

Supply measured log10 of IC50 of COc1cccc(-c2oc3cc(C)ccc3c(=O)c2O)c1 in your reply.
0.47

====

Tested on: A375 cells
assay_protocol: MTT cytotoxicity / cell viability assay, A375
Format: cell-based, human
experimental_setup: IC50 melanocytes / IC50 A375
Here the recorded selectivity index is given for each entry.
// no unit, no text: just the number

Some solved cases for reference:
O=c1c(O)c(-c2ccccc2)oc2cc(Br)ccc12 [F14]; 1.4
COc1cc(-c2oc3ccc(F)cc3c(=O)c2O)cc(OC)c1OC [F22]; 1.6
O=c1c(O)c(-c2ccccc2)oc2ccccc12 [F1, 3-Hydroxy-2-phenyl-4H-chromen-4-one]; 1.9

Fill in selectivity index for record Cc1ccc2c(=O)c(O)c(-c3cccc(Cl)c3)oc2c1 [F8]
3.1

Consider the molecule O=c1c(O)c(-c2ccc(SC(F)(F)F)cc2)oc2ccccc12 [F3] and give its recorded selectivity index.
2.2

# return recorded selectivity index for input CCOc1ccc(-c2oc3cc(Cl)ccc3c(=O)c2O)cc1F [F21]
3.2

Specify selectivity index for COc1cc(OC)c(-c2oc3ccccc3c(=O)c2O)cc1OC [F23] and stop.
1.7

Give selectivity index for Cc1cc([N+](=O)[O-])c2oc(-c3ccc(Br)cc3)c(O)c(=O)c2c1 [F20]
5.6
